STUDY_TARGET: CYP2C9 (Homo sapiens)
Construct: Human liver microsome (20 mg protein/mL, 5 μL, Xenotech LLC, purchased from Lenexa KS); tissue Xenotech LLC; host or cells: human liver microsome
ASSAY_SUMMARY: CYP inhibitory test using human liver microsome
Assay type: in vitro ADME
EXPERIMENTAL_PARAMETERS: model substrate diclofenac, 37° C. 10 min, read-out: CYP2C9 inhibition IC50
OBSERVABLE: pIC50
The read-out pIC50 is expressed as -log10 of concentration in moles per litre.

Reported pIC50 for CCS(=O)(=O)c1ccc2c(c1)N(C(=O)c1cc(Cl)c(O)c(Cl)c1)CCO2 [Example 84] was 4.82

pIC50 for O=S(=O)(c1cc(Cl)c(O)c(Cl)c1)N1CCOc2ccccc21 [Example 22] is 6.00

Lab book: pIC50 of CC(C)c1cccc2c1OC(C(C)C)CN2C(=O)c1cc(Cl)c(O)c(Cl)c1 (stereo not drawn) [Example 32] noted as 5.00

###

pIC50 tested on UniProt P11712: recorded values
In simple prose, pIC50 is minus the logarithm base ten of a concentration in moles per litre.

[
  {
    "COMPOUND": "COC(=O)c1ccc2c(c1)OCCN2C(=O)c1cc(Cl)c(O)c(Cl)c1",
    "pIC50": 5.10
  }
]

Record O=C(c1ccc(O)c(C(F)(F)F)c1)N1CCOc2ccccc21 , field pIC50: 4.68

Quick note, pIC50 for CS(=O)(=O)Nc1ccc2c(c1)OCCN2C(=O)c1cc(Cl)c(O)c(Cl)c1 landed at 4.89

Lab book: pIC50 of CC1Cc2ccccc2N1C(=O)c1cc(Cl)c(O)c(Cl)c1 (stereo not drawn) noted as 4.55

Reported pIC50 for O=C(c1cc(Br)c(O)c(Br)c1)N1CCOc2ccc(Cl)cc21 was 4.96

Value of pIC50 reported for the compound O=C(c1cc(Cl)c(O)c(Cl)c1)N1CCOc2ccc(-c3ccccc3)cc21 is 4.85

Memo: O=C(c1cc(Br)c(O)c(Br)c1)N1CCOc2ccc([N+](=O)[O-])cc21 , reported pIC50: 4.68

###

Entries annotated with measured pIC50
STUDY_TARGET: CYP2C9 (Homo sapiens, UniProt P11712)
Sequence (P11712 whole entry): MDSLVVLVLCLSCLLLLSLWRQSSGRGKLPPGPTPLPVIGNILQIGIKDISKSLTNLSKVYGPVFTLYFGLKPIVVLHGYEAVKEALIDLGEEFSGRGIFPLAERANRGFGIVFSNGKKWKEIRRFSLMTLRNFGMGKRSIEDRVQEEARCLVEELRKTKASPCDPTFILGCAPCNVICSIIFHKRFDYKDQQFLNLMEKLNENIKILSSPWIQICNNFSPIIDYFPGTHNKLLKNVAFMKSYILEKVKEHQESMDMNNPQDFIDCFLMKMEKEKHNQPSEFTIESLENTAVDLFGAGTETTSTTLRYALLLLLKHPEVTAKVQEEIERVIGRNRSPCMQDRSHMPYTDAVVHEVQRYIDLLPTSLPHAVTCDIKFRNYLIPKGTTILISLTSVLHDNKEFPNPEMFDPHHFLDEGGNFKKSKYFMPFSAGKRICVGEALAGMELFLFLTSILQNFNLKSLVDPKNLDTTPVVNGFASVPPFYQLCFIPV
Scale: pIC50 equals -log10([C]), with [C] in mol/L.

See these solved cases before continuing.
[
  {
    "SUBSTANCE_SMILES": "O=C(c1cc(Cl)c(O)c(Cl)c1)N1CCc2ccccc21",
    "OBSERVABLE": "pIC50",
    "OBSERVED_VALUE": 4.74
  },
  {
    "SUBSTANCE_SMILES": "CC(C)(C)c1ccc2c(c1)N(C(=O)c1cc(Cl)c(O)c(Cl)c1)CCO2",
    "OBSERVABLE": "pIC50",
    "OBSERVED_VALUE": 4.72
  },
  {
    "SUBSTANCE_SMILES": "O=C(c1cc(Br)c(O)c(Br)c1)N1CCOc2ccc(F)cc21",
    "OBSERVABLE": "pIC50",
    "OBSERVED_VALUE": 4.89
  },
  {
    "SUBSTANCE_SMILES": "CN1CCN(C(=O)c2cc(Cl)c(O)c(Cl)c2)c2ccccc21",
    "OBSERVABLE": "pIC50",
    "OBSERVED_VALUE": 4.48
  }
]

Now for another entry.
Bench note, CYP2C9 (Homo sapiens, UniProt P11712): O=C(c1cc(Cl)c(O)c(Cl)c1)N1CCOc2ccc3ccccc3c21 , pIC50 reads 5.00

###

Catalogue of compounds with associated pIC50
STUDY_TARGET: CYP2C9 (Homo sapiens)
pIC50: −log10 of the molar value.

Example entries begin here.
[
  {
    "COMPOUND": "O=C(O)c1ccc2c(c1)OCCN2C(=O)c1cc(Cl)c(O)c(Cl)c1 [Example 60]",
    "pIC50": "< 4.30"
  },
  {
    "COMPOUND": "O=C1COc2ccccc2N1C(=O)c1cc(Cl)c(O)c(Cl)c1 [Example 24]",
    "pIC50": "< 4.30"
  },
  {
    "COMPOUND": "O=C(c1ccc(Cl)c(O)c1)N1CCOc2ccccc21 [Example 41]",
    "pIC50": "< 4.30"
  }
]

O=C(c1cc(Cl)nc(Cl)c1)N1CCOc2ccccc21 [Example 42] on CYP2C9 (Homo sapiens) gives pIC50 = < 4.30

Record O=C(c1ccc(O)cc1)N1CCOc2ccccc21 [Example 88] has CYP2C9 (Homo sapiens) pIC50 equal to < 4.30

Simply: O=C(c1cc(Cl)c(O)c(Cl)c1)N1CCOc2ccc(O)cc21 [Example 19] , CYP2C9 (Homo sapiens), pIC50 = < 4.30

GET /values?item= CC(=O)N1CCN(C(=O)c2cc(Cl)c(O)c(Cl)c2)c2ccccc21 [Example 73] &system= CYP2C9 (Homo sapiens) returns pIC50: < 4.30

Entry CS(=O)(=O)N1CCN(C(=O)c2cc(Cl)c(O)c(Cl)c2)c2ccccc21 [Example 83] , tested on CYP2C9 (Homo sapiens), has a reported pIC50 of < 4.30

Form field pIC50 for item O=C(c1cc(Cl)cc(Cl)c1)N1CCOc2ccccc21 [Example 63] on CYP2C9 (Homo sapiens): < 4.30

The reported pIC50 value, CYP2C9 (Homo sapiens), for O=C(c1cc(Cl)c(O)c(Cl)c1)N1CCSc2ccccc21 [Example 8] reads 4.72

# pIC50 measured on CYP2C9 (Homo sapiens) for item COC(=O)c1cccc(C(=O)N2CCOc3ccccc32)c1 [Example 48] = < 4.30

Entry O=C(c1cc(Br)c(O)c(Br)c1)N1CCOc2ccc3ccccc3c21 [Example 80] : pIC50 on CYP2C9 (Homo sapiens) = 5.30

###

The following are reported pIC50 results, target or system CYP2C9 (Homo sapiens, UniProt P11712).
pIC50: −log10 of the molar value.

Previously resolved entries follow.
[
  {
    "SUBSTANCE_SMILES": "O=C(c1cc(F)c(O)c(F)c1)N1CCOc2ccccc21",
    "pIC50": "< 4.30"
  },
  {
    "SUBSTANCE_SMILES": "O=C(c1cc(Cl)c(O)c(Cl)c1)N1CCOc2cccc(O)c21",
    "pIC50": 4.96
  }
]

get_value(item= O=C1CCN(C(=O)c2cc(Cl)c(O)c(Cl)c2)c2ccccc2N1 , readout=pIC50) returns < 4.30

Reference source: patent US20070010670A1
